Numbers sourced from patent US20240336909A1.

- measuredOn: T1, human EpCAM protein (human, UniProt P16422 24-265)
- T1 construct: biotinylated in the Octet assays; also called hu EpCAM; biotinylated human EpCAM protein
- T1 sequence (looked up): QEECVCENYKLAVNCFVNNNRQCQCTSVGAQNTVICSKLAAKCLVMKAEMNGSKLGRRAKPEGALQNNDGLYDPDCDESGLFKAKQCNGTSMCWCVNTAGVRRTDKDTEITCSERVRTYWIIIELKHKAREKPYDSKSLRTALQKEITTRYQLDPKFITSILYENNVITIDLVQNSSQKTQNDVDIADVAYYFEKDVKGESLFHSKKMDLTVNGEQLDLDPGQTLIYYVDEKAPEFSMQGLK
- assaySummary: colorimetric ELISA
reportedMetric: Human EpCAM/Control (ratio)

binder="Llama anti-EpCAM single domain antibody EPL127 (VHH, E. coli periplasmic extract) VHH: QVQLQESGGGLVQAGGSLRLSCAAPGFAFNDHAILWFRQAPGKEREGVSEICRDGTTYYTDSVKGRFTISSDNAKNTVYLQMNSVKTDDTAVYYCAVDRRRYYCSGNRAFSSDYYYWGQGTQVTVSS" reportedmetric="Human EpCAM/Control" resultvalue=5
binder="Llama anti-EpCAM single domain antibody EPL10 (VHH, E. coli periplasmic extract) VHH: QVQLQESGGGLVQAGGSLRLSCAASGSVFRANVMGWYRQAPGKQHELVARIDPGGTTTYADPVKGRFTISRDNAKKTVYLQMNSLKPDDTAVYYCNAIILLSGGPKDYWGQGTQVTVSS" reportedmetric="Human EpCAM/Control" resultvalue=12
binder="Llama anti-EpCAM single domain antibody EPL136 (VHH, E. coli periplasmic extract) VHH: QVQLQESGGGLVQPGGSLRLSCAASGDTFLRYAMGWFRQAPGKEREFVAAITWNGGNTDYAGSLKGRFTISRDNTKNTVYLQMNSLKPEDTAVYYCAADLTFGLASSHYQYDYWGQGTQVTVSS" reportedmetric="Human EpCAM/Control" resultvalue=9
